Origin of measurements: patent US9326987B2

Readings of CC50 for the listed molecules
# System: A549 cells
# EXPERIMENTAL_CONDITIONS: read-out: TC50; concentration resulting in 50% cell death, absence of virus; A/Victoria/3/75 (H3N2)
Where a name gives a salt, the structure may show the parent alone.

MOLECULE	CC50
CC(C)N1CCN(Cc2cnc(-c3cc(-c4cccc5[nH]ccc45)cc4[nH]ncc34)o2)CC1 [Compound A, hydrochloride]	> 10 µM
COc1ncc(-c2cc(-c3ncc(CN4C[C@@H](C)O[C@@H](C)C4)o3)c3cn[nH]c3c2)cc1NS(C)(=O)=O	> 10 µM

Please look at the following molecule next.
Recorded result, CC(=O)N[C@H]1[C@H]([C@H](O)[C@H](O)CO)OC(C(=O)O)=C[C@@H]1N=C(N)N , CC50: > 100 µM

----------
# Tested on: A549 cells
# EXPERIMENTAL_CONDITIONS: read-out: TC50; concentration resulting in 50% cell death, absence of virus; A/WS/33 (H1N1)
Structures can show the parent of a compound that is named as a salt.
MEASURED_ENDPOINT: CC50

Past entries and their recorded results:
COMPOUND	CC50
COc1ncc(-c2cc(-c3ncc(CN4C[C@@H](C)O[C@@H](C)C4)o3)c3cn[nH]c3c2)cc1NS(C)(=O)=O [Compound B]	> 10 µM
CC(C)N1CCN(Cc2cnc(-c3cc(-c4cccc5[nH]ccc45)cc4[nH]ncc34)o2)CC1 [Compound A, hydrochloride]	> 10 µM

Please look at the following compound next.
Recorded result, CC(=O)N[C@H]1[C@H]([C@H](O)[C@H](O)CO)OC(C(=O)O)=C[C@@H]1N=C(N)N [Zanamivir, zinamavir] , CC50: > 100 µM

----------
# Test system: B/Russia/69
# ASSAY_PROTOCOL: Influenza virus cytoprotection assay in A549 cells (MTS)
# Type: cell-based
# EXPERIMENTAL_CONDITIONS: unidentified influenza virus, A549, 168 h
Counter-ions that a name gives are not always drawn.
MEASURED_ENDPOINT: IC50

Past entries and their recorded results:
MOLECULE	MEASURED_ENDPOINT	READING
CC(=O)N[C@H]1[C@H]([C@H](O)[C@H](O)CO)OC(C(=O)O)=C[C@@H]1N=C(N)N	IC50	3.25 µM
CC(C)N1CCN(Cc2cnc(-c3cc(-c4cccc5[nH]ccc45)cc4[nH]ncc34)o2)CC1 [Compound A, hydrochloride]	IC50	3.53 µM
COc1ncc(-c2cc(-c3ncc(CN4C[C@@H](C)O[C@@H](C)C4)o3)c3cn[nH]c3c2)cc1NS(C)(=O)=O	IC50	4.65 µM

Please look at the following molecule next.
Recorded result, NC(=O)c1ncn([C@@H]2O[C@H](CO)[C@@H](O)[C@H]2O)n1 , IC50: 4.75 µg/mL

----------
# Test system: A549 cells
# EXPERIMENTAL_CONDITIONS: read-out: TC50; concentration resulting in 50% cell death, absence of virus; A/PR/8/34 (H1N1)
Counter-ions that a name gives are not always drawn.
Readings of CC50 for the listed compounds

Entry CC(=O)N[C@H]1[C@H]([C@H](O)[C@H](O)CO)OC(C(=O)O)=C[C@@H]1N=C(N)N , A549 cells data, CC50 value: > 100 µM

Entry CC(C)N1CCN(Cc2cnc(-c3cc(-c4cccc5[nH]ccc45)cc4[nH]ncc34)o2)CC1 [Compound A, hydrochloride] , A549 cells data, CC50 value: > 10 µM

Entry COc1ncc(-c2cc(-c3ncc(CN4C[C@@H](C)O[C@@H](C)C4)o3)c3cn[nH]c3c2)cc1NS(C)(=O)=O , A549 cells data, CC50 value: > 10 µM

----------
# ASSAY_PROTOCOL: in vitro
# EXPERIMENTAL_CONDITIONS: human
Counter-ions that a name gives are not always drawn.
MEASURED_ENDPOINT: CC50

Past entries and their recorded results:
MOLECULE	READING
CC(C)N1CCN(Cc2cnc(-c3cc(-c4cccc5[nH]ccc45)cc4[nH]ncc34)o2)CC1 [Compound A, hydrochloride]	> 10 µM
COc1ncc(-c2cc(-c3ncc(CN4C[C@@H](C)O[C@@H](C)C4)o3)c3cn[nH]c3c2)cc1NS(C)(=O)=O [Compound B]	> 10 µM

Please look at the following molecule next.
Recorded result, CC(=O)N[C@H]1[C@H]([C@H](O)[C@H](O)CO)OC(C(=O)O)=C[C@@H]1N=C(N)N [Zanamivir, zinamavir] , CC50: > 100 µM

----------
# System: A549 cells
# EXPERIMENTAL_CONDITIONS: read-out: TC50; concentration resulting in 50% cell death, absence of virus; B/Russia/69
Structures can show the parent of a compound that is named as a salt.
Readings of CC50 for the listed compounds

Past entries and their recorded results:
COMPOUND	CC50
COc1ncc(-c2cc(-c3ncc(CN4C[C@@H](C)O[C@@H](C)C4)o3)c3cn[nH]c3c2)cc1NS(C)(=O)=O	> 10 µM
CC(=O)N[C@H]1[C@H]([C@H](O)[C@H](O)CO)OC(C(=O)O)=C[C@@H]1N=C(N)N	> 100 µM

Entry CC(C)N1CCN(Cc2cnc(-c3cc(-c4cccc5[nH]ccc45)cc4[nH]ncc34)o2)CC1 [Compound A, hydrochloride] , A549 cells data, CC50 value: > 10 µM
